Source: PubChem BioAssay (NCI)

Please go through the items and note down their GI50.
# Tested on: K-562 leukemia
# Procedure Details: NCI tumour cell line growth inhibition, 48 h

Example results:
Structure Smiles: Cn1cc(-c2csc(-c3cn(C(=O)OC(C)(C)C)c4ccccc34)n2)c2cccnc21
GI50: 2020 nM
//
Structure Smiles: CC(=O)[O][Hg][c]1s[c]([Hg][O]C(C)=O)[c]([Hg][O]C(C)=O)[c]1[Hg][O]C(C)=O
GI50: 1300 nM
//
Structure Smiles: COC(=O)[C@@H](C)C[C@H](Cc1ccccc1)NC(=O)c1csc([C@@H](C[C@H](C(C)C)N(C)C(=O)[C@@H](NC(=O)[C@H]2CCCCN2C)C(C(F)(F)F)C(F)(F)F)OC(C)=O)n1
GI50: 12.4 nM
//
Structure Smiles: C[C@@H]1Cc2c(ccc3[nH]ncc23)[C@@H](c2ccc(NC3CN(CCCF)C3)cn2)N1CC(F)(F)F
GI50: 19400 nM
//
Structure Smiles: O=S(=O)(Nc1ccc(Cl)c(Cl)c1)c1ccc(-c2cnc(C3CC3)o2)cc1
GI50: 280 nM

Ask: Quick one: GI50 of Cn1cccc1-c1cc(-c2ccccc2)nc(N)c1C#N ?
Result: > 100000 nM

---

# System: HT29 colon
# Procedure Details: NCI tumour cell line growth inhibition, 48 h
Where a SMILES comes first, the peptide text is derived from it. [ ]: non-standard residue; d: D form. The star is where a group is joined. Cbz = O=C(OCc1ccccc1)*; Aib = CC(C)(N)C(=O)O
Recorded Metric: TGI

Look up TGI for the entries below, preserving their order.
1. COc1cc(CCc2ccncc2)cc(OC)c1OC
2. Nc1ccn(C2CC3OCC3O2)c(=O)n1 (stereo unspecified)
3. CC(C)(NC(=O)C(C)(C)NC(=O)OCc1ccccc1)C(=O)O (Cbz-[Aib]-[Aib]-OH)
4. NC(=S)NS(=O)(=O)c1ccc(Cl)cc1
5. NC(=O)c1nc(-c2ccc(Cl)c(Cl)c2)nc2ccccc12
6. COc1cccc(N(CN2C(=O)CCC2OC)C(C)=O)c1 (stereo unspecified)

Result:
1: > 100 µM; 2: > 100 µM; 3: > 100 µM; 4: > 100 µM; 5: > 100 µM; 6: > 100 µM

Report TGI for every entry below.
1. O=C(CN1CCN(c2ccccn2)CC1)N1CCCn2c1nc1ccccc1c2=O
2. ClC1=C(Cl)C2OC3C=CCC3OC2C(Cl)=C1Cl (stereo unspecified)
3. COC(=O)C(CNC(=O)/C=C/c1ccc(OC(C)=O)c(OC(C)=O)c1)NC(=O)/C=C/c1ccc(OC(C)=O)c(OC(C)=O)c1 (stereo unspecified)

Result:
1. > 100 µM
2. 72.1 µM
3. > 100 µM

Each compound below has a reported value. Please supply its TGI.
1. C/C(=N\Nc1n[nH]c(=S)n1N)c1c(O)cc(C)oc1=O
2. CCOC(=O)C1=C(C)N(Cc2ccccc2)C2(O)C(OC)CC(=O)C3C(=O)N(c4ccccc4)C(=O)C132 (stereo unspecified)
3. COC(=O)C(=O)C(C#N)c1c(Cl)cccc1Cl (stereo unspecified)
4. CC1=NN2CCC(=O)N=C2S1
5. COc1ccc(/C=C/C(=O)c2ccc(Nc3nc(Nc4ccc(F)cc4)nc(Nc4ccc(F)cc4)n3)cc2)cc1
6. CCOC(=O)C(=O)Nc1nc2ccc(C)cc2s1

Result:
1. > 100 µM
2. 23.9 µM
3. > 100 µM
4. > 100 µM
5. > 100 µM
6. > 100 µM

Hello, I would appreciate it if you could give TGI for each entry below.
1. COC(=N)CCCl
2. O=C(N/C(=C\c1ccc(F)cc1)c1nc2ccccc2[nH]1)c1ccccc1
3. CCOC(=O)CCC(NC(=O)c1ccc(Nc2nc3ccccc3nc2C(=O)OCC)s1)C(=O)OCC (stereo unspecified)
4. CC1C(c2ccccc2)NC(c2ccccc2)CC1(N)C#N (stereo unspecified)
5. Cc1ccc(C)c2c1n1c(=O)n(C)c(=O)n21
6. CCC(C)N1CN(c2ccccc2)C2(CCN(CCCC3(c4ccc(F)cc4)OCCO3)CC2)C1=O (stereo unspecified)

Result:
> 100 µM
> 100 µM
> 100 µM
> 100 µM
> 100 µM
> 37.5 µM

Provide each entry's TGI from the list below.
1. C=CCO[C@H]1CC[C@@]2(C)C(CC[C@]3(C)C2CC=C2[C@@H]4[C@@H](C)C(C)CC[C@]4(C(=O)O)CCC23C)C1(C)C (stereo partly specified)
2. C=C(Cl)CN1c2ccccc2C=Cc2ccccc21
3. O=C1C(=Cc2ccc(F)cc2)C(=O)c2ccccc21
4. CCN(CC)CCNc1ccc([N+](=O)[O-])c2nc3ccc(OC)cc3c(N)c12

Result:
1. 31.6 µM
2. 56.4 µM
3. > 100 µM
4. 1.42 µM

Hi there! I need TGI for each item below, if you can.
1. Cc1ccc(S(=O)(=O)N/N=C\c2c3ccccc3[n+](C)c3ccccc23)cc1
2. COc1ccc(/N=N/C(=NNC(=O)c2ccc(C)cc2)c2ccc(N(C)C)cc2)cc1
3. CN1C/C(=C\c2ccc(C(=O)O)cc2)C(=O)/C(=C/c2ccc(C(=O)O)cc2)C1
4. CCOc1ccccc1NC(=O)C1=C(C)NC(C)=C(C(=O)Nc2ccccc2OCC)C1c1cccc([N+](=O)[O-])c1
5. COc1ccc2c(c1)[nH]c1c3ccc(OC)cc3oc(=O)c21

Result:
62.6 µM
> 89.8 µM
> 100 µM
> 100 µM
> 100 µM

Could you tell me TGI for each of these compounds? They are listed below.
1. O=S(=O)(Nc1ccc(Cl)c(Cl)c1)c1ccc(-c2cnc(C3CC3)o2)cc1
2. Cc1ccc(C(=O)N/N=C(\N=Nc2ccccc2C(=O)O)c2ccc(N(C)C)cc2)cc1
3. Cc1cc2nc(-c3ccc(O)c(O)c3)n(Cc3ccc(O)c(O)c3)c2cc1C
4. COC(=O)c1cc(C)[nH]c2c(C)cc3nc4ccccc4c3c12
5. CN1CCN(c2nc3cc(F)ccc3n3cccc23)CC1

Result:
1. 16.8 µM
2. > 100 µM
3. > 100 µM
4. 13.5 µM
5. 87.6 µM

Report TGI for each item below.
1. CC(C)N1[C@@H]2CCCC[C@H]2N(C(C)C)[P+]1=O
2. COC(=O)C(/C(=N\O)C(=O)Nc1ccc(Br)cc1)c1nc2ccccc2[nH]c1=O (stereo unspecified)
3. Cc1oc2nc(N(C)C)n3cnnc3c2c1C
4. Cn1cccc1-c1cc(-c2ccccc2)nc(N)c1C#N
5. CCCC(=O)OC(OC(=O)CCC)c1ccc([N+](=O)[O-])o1
6. N#Cc1c(N2CCCC2)nsc1Nc1ccccc1

Result:
["> 100 µM", "> 100 µM", "> 100 µM", "> 100 µM", "42.8 µM", "> 100 µM"]

---

# Tested on: SK-MEL-5 melanoma
# Procedure Details: NCI tumour cell line growth inhibition, 48 h
Where a SMILES comes first, the peptide text is derived from it. [ ]: non-standard residue; d: D form. The star is where a group is joined. Cbz = O=C(OCc1ccccc1)*; Aib = CC(C)(N)C(=O)O
Recorded Metric: TGI

Molecule: O=C(Cn1c(=O)oc2ccc(C(=O)c3cccc(Cl)c3)cc21)c1ccccc1
TGI: > 100 µM

Molecule: CNC(=O)c1cc(-c2ccc(F)cc2)cc(-c2ccc(S(=O)(=O)N3CCCC3)cc2)c1N
TGI: > 25 µM

Molecule: NC(=S)NS(=O)(=O)c1ccc(Cl)cc1
TGI: > 100 µM

Molecule: N#CNC1=NCCC(=O)N1CCc1c[nH]c2ccccc12
TGI: > 100 µM

// batch mode: one TGI value per listed entry
1. CC(C)(NC(=O)C(C)(C)NC(=O)OCc1ccccc1)C(=O)O (Cbz-[Aib]-[Aib]-OH)
2. O=C1Nc2ccccc2SC1=C(C(=O)c1ccccc1)C(=O)c1ccccc1
3. COC1CC(n2cc(F)c(N)nc2=O)OC1CO (stereo not drawn)
4. CC(C)c1cc(C(C)C)c(B(c2ccccc2)c2ccccc2)c(C(C)C)c1B(c1ccccc1)c1ccccc1
5. CC1/C(=N/O)CC(c2ccccc2)N(N=O)C1c1ccccc1 (stereo not drawn)
6. CN1C/C(=C\c2ccc(C(=O)O)cc2)C(=O)/C(=C/c2ccc(C(=O)O)cc2)C1

Result:
> 100 µM
> 100 µM
> 100 µM
> 100 µM
> 100 µM
> 100 µM

The following molecules each have a reported value; give each one's TGI.
1. COc1ccc(C2C3=C(COC3=O)N(CCO)c3cc4c(cc32)CCC4)cc1 (stereo not drawn)
2. O=c1onc(Nc2ccccc2)n1-c1ccccc1
3. Cc1cc(OCc2nnc3n2N=C(c2cc(F)c(Cl)cc2Cl)/C(=C/c2ccc(-c4ccc(Cl)cc4)o2)S3)ccc1Cl
4. CCCC(=O)OC(OC(=O)CCC)c1ccc([N+](=O)[O-])o1

Result:
> 50 µM
> 100 µM
> 50 µM
> 100 µM

For each of the molecules below, state TGI.
1. Nc1ccc(C(=O)O)cc1
2. Oc1ccc(O)c(-n2cccn2)c1-n1cccn1

Result:
1. > 100 µM
2. > 100 µM

For every record below, what is its TGI?
1. CC(C)(C)OC(=O)NNCC(O)COc1ccccc1 (stereo not drawn)
2. Nc1ccn(C2CC3OCC3O2)c(=O)n1 (stereo not drawn)
3. O=C(CCc1cc(-c2ccc(F)cc2)n[nH]1)N(Cc1ccccc1)Cc1ccccc1
4. CS(=O)(=O)CCNCc1ccoc1-c1ccc2ncnc(Nc3ccc(OCc4ccccc4)cc3)c2c1

Result:
1. > 100 µM
2. > 100 µM
3. > 100 µM
4. > 25 µM
